From: paper PMC5540273

Measured %Inh, listed per entry.
System: DCAMKL2
Construct: gene DCLK2
conditionDescription: concentration: 1 μM, replicates: in singlicate; n = 1;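 also: KINOMEscan kinase panel screen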
A complete answer gives the number followed by the unit.

The following compounds have reported results that may help.
[[record]]
compound = "CN1CCN(Cc2cccc(-c3ccc4c(Nc5ccc(Oc6ccccc6)cc5)ccnc4c3)c2)CC1"
quantity = "%Inh"
resultvalue = "1%"

[[record]]
compound = "Cl.Cl.NCC(C(=O)Nc1cc(Br)c(-c2ccnc3[nH]ccc23)s1)c1ccccc1 (centres unmarked)"
quantity = "%Inh"
resultvalue = "3%"

[[record]]
compound = "Cc1cccc(Nc2nc(N[C@H]3CCNC3)ncc2C(N)=O)c1.Cl"
quantity = "%Inh"
resultvalue = "30%"

[[record]]
compound = "COc1ccc(Nc2nccc(N3CCC(NC(=O)Nc4cccc(OC)c4)C3)n2)cc1 (centres unmarked)"
quantity = "%Inh"
resultvalue = "0%"

[[record]]
compound = "CNC(=O)c1ccccc1Nc1nc(Nc2ccc(N3CCOCC3)cc2)ncc1Cl.Cl"
quantity = "%Inh"
resultvalue = "31%"


Ask | Requested read-out: %Inh. Entry: `Cc1cccc(NC(=O)Nc2ccc(Oc3ncnc4ccn(C)c34)cc2)c1`
Reply | 0%

Ask | Requested read-out: %Inh. Entry: `c1ccc(Oc2ccc(Nc3ccnc4cc(-c5ccc(CNCCN6CCOCC6)o5)ccc34)cc2)nc1`
Reply | 0%

Ask | Requested read-out: %Inh. Entry: `COc1cc2c(cc1OCCN1CCNCC1)ncc1c3ccc(C#N)cc3[nH]c21`
Reply | 3%

----------
System: WEE2
conditionDescription: concentration: 1 μM, replicates: in singlicate; n = 1
Measured %Inh, listed per entry.
Please respond with the number in % and leave the unit unwritten.

[[record]]
compound = "COc1ccc(Nc2nccc(N3CCC(NC(=O)Nc4cccc(OC)c4)C3)n2)cc1 (stereo not drawn) [GSK1379742]"
studytarget = "WEE2"
quantity = "%Inh"
resultvalue = 13

[[record]]
compound = "Cc1ccc(C)c(NC(=O)NC2CCN(c3ccnc(Nc4ccc(F)cc4)n3)C2)c1 (stereo not drawn) [GSK1379720]"
studytarget = "WEE2"
quantity = "%Inh"
resultvalue = 0

[[record]]
compound = "CN1CCN(CCCNc2nccc(-c3c(-c4ccc(F)cc4)nn4cc(C(F)(F)F)ccc34)n2)CC1 [GW621581]"
studytarget = "WEE2"
quantity = "%Inh"
resultvalue = 0

[[record]]
compound = "CC(=O)N1CCN(c2ccc(Nc3nccc(-c4sc(C(C)C)nc4-c4cccc(NS(=O)(=O)c5cccc(Cl)c5)c4)n3)cn2)CC1 [GSK1660437]"
studytarget = "WEE2"
quantity = "%Inh"
resultvalue = 0

[[record]]
compound = "COc1ccc(-c2coc3ccc(-c4nnc(SCc5ccc(OC)c(C(F)(F)F)c5)o4)cc23)cc1"
studytarget = "WEE2"
quantity = "%Inh"
resultvalue = 0

[[record]]
compound = "COc1cc2c(cc1OCCN1CCNCC1)ncc1c3ccc(C#N)cc3[nH]c21"
studytarget = "WEE2"
quantity = "%Inh"
resultvalue = 0


Ask | Requested read-out: %Inh. Entry: CCn1c(-c2nonc2N)nc2c(C#CC(C)(C)O)nc(OC[C@H](N)c3ccccc3)cc21 [GSK943949]
Reply | 2

Ask | Requested read-out: %Inh. Entry: `Cc1ccc(C(=O)N2CC[C@@H](O)C2)cc1-n1c(C)cc(OCc2ccc(F)cc2F)c(Br)c1=O`
Reply | 0

Ask | Requested read-out: %Inh. Entry: COc1cc(Nc2nccc(N3CCC(NC(=O)Nc4cccc(C(C)=O)c4)C3)n2)cc(OC)c1OC (stereo not drawn) [GSK1379753]
Reply | 0
